The reported measurements were obtained from patent US20240238448A1.

Assay: Pharmacokinetics of CEM87 in mice
Conditions: mouse, in vivo, single 3 mg/kg IV, read-out: maximal concentration (Cmax)
measured-attribute: Cmax (ng/mL)
Give your result in ng/mL as a bare value.

Sure, the documented Cmax for COc1ccc2c(c1)C(c1ccc(Cl)cc1)=N[C@@H](CC(=O)NCc1cn(CCOCCOCCOCCNC(=O)CCSCCC[C@@H]3/C=C(\C)C[C@H](C)C[C@H](OC)[C@H]4O[C@@](O)(C(=O)C(=O)N5CCCC[C@H]5C(=O)O[C@H](/C(C)=C/[C@@H]5CC[C@@H](O)[C@H](OC)C5)[C@H](C)[C@@H](O)CC3=O)[C@H](C)C[C@@H]4OC)nn1)c1nnc(C)n1-2 is 34100

###

Assay: Pharmacokinetics of CEM87 in mice
Settings: mouse, in vivo, single 30 mg/kg IP, read-out: Cmax
Description: Pharmacokinetic Data of CEM87 in Mice: Initial and encouraging pharmacokinetics (PK) analysis of CEM87 were conducted. Mice were administered a single 3 mg/kg dose of CEM87 via intravenous (IV) injection or a single dose of 30 mg/kg of CEM87 through the intraperitoneal (IP) route (n=9 per group, 3 mice per time point).
measured-attribute: Cmax
Phrase the answer as number then unit, nothing more needed.

Sure, the documented Cmax for COc1ccc2c(c1)C(c1ccc(Cl)cc1)=N[C@@H](CC(=O)NCc1cn(CCOCCOCCOCCNC(=O)CCSCCC[C@@H]3/C=C(\C)C[C@H](C)C[C@H](OC)[C@H]4O[C@@](O)(C(=O)C(=O)N5CCCC[C@H]5C(=O)O[C@H](/C(C)=C/[C@@H]5CC[C@@H](O)[C@H](OC)C5)[C@H](C)[C@@H](O)CC3=O)[C@H](C)C[C@@H]4OC)nn1)c1nnc(C)n1-2 is 15500 ng/mL

###

Experiment: Pharmacokinetics of CEM87 in mice
Settings: mouse, in vivo, single 30 mg/kg IP, read-out: AUC0-24
measured-attribute: AUC(0-t) (µg·h/mL)
Give your result in µg·h/mL as a bare value.

Sure, the documented AUC(0-t) for COc1ccc2c(c1)C(c1ccc(Cl)cc1)=N[C@@H](CC(=O)NCc1cn(CCOCCOCCOCCNC(=O)CCSCCC[C@@H]3/C=C(\C)C[C@H](C)C[C@H](OC)[C@H]4O[C@@](O)(C(=O)C(=O)N5CCCC[C@H]5C(=O)O[C@H](/C(C)=C/[C@@H]5CC[C@@H](O)[C@H](OC)C5)[C@H](C)[C@@H](O)CC3=O)[C@H](C)C[C@@H]4OC)nn1)c1nnc(C)n1-2 [CEM87] is 114

###

Test: Pharmacokinetics of CEM87 in mice
Details: mouse, in vivo, single 3 mg/kg IV, read-out: half-life (t1/2) (converted)
measured-attribute: half-life

Sure, the documented half-life for COc1ccc2c(c1)C(c1ccc(Cl)cc1)=N[C@@H](CC(=O)NCc1cn(CCOCCOCCOCCNC(=O)CCSCCC[C@@H]3/C=C(\C)C[C@H](C)C[C@H](OC)[C@H]4O[C@@](O)(C(=O)C(=O)N5CCCC[C@H]5C(=O)O[C@H](/C(C)=C/[C@@H]5CC[C@@H](O)[C@H](OC)C5)[C@H](C)[C@@H](O)CC3=O)[C@H](C)C[C@@H]4OC)nn1)c1nnc(C)n1-2 is ~4 h
